# System: IGROV-1
# Test details: NCI tumour cell line growth inhibition, 48 h
Activity calls are given as the source filed them. Cut-off read from the data, not from the text of the source: active = GI50 up to about 1.1 µM and inactive = higher.
Outcomes you can answer with include only these: active, inactive

Per the assay record, what outcome was assigned to COc1ccc(-c2c(C(=O)Nc3ccccc3)c(-c3ccccc3)n(C3OC(CO)C(O)C(O)C3O)c(=S)c2C#N)cc1 (stereo not given) ?
inactive

Next: C=CS(=O)(=O)CCN1CC1
inactive

Next: C=C[C@]1(C)C[C@@H](OC(=O)CO)[C@@]2(C)[C@H](C)CC[C@]3(CCC(=O)[C@H]32)[C@@H](C)[C@@H]1O
inactive

Next: Nc1ccnc2c1ncn2[C@H]1C[C@H](O)[C@@H](CO)O1
inactive

Next: COc1cc2c(cc1O)CCN[C@@]21CS[C@H]2c3c(OC(C)=O)c(C)c4c(c3C(COC1=O)N1C2C2NC(Cc3cc(C)c(OC)c(O)c32)[C@@H]1C#N)OCO4 (stereo not given in full)
active

Next: CSCCOC(=O)C(=[N+]=[N-])c1ccc([N+](=O)[O-])cc1
inactive

Next: COc1ccc(-n2cnc3c2=NC(C)(C)NC=3C(N)=O)c(OC)c1
inactive

Next: COP(=O)(C(/C=C/c1ccccc1)OC(C)=O)[C@@H]1CCCC[C@H]1N(CC(C)(C)C)C(C)=O (stereo not given in full)
inactive

Next: CCCCC(C(=O)NCCNC(=O)CCC(=O)N(C)O)C(=O)NCCNC(=O)CCC(=O)N(C)O
inactive

Next: O=C(Nc1cccc(C(=O)NCCCO)c1)/C(=C/c1ccccc1)NC(=O)c1ccccc1
inactive

Next: C/C(=C\c1ccc2c(c1)OCO2)[N+](=O)[O-]
inactive

Next: S=C(Nc1ccc(Br)cn1)NC12CC3CC(CC(C3)C1)C2
inactive

Next: CC(=O)/N=C1/N(/C=C2\C(=O)Oc3ccccc3C2=O)C(=O)/C(=C/c2ccc(NC(C)=O)cc2)N1C
inactive

Next: C=CCON(C(=O)OC(C)(C)C)C(C)(C)C
inactive

Next: CCOC(=O)c1c(-c2ccccc2)nc2c(OC)nccn12
inactive

Next: C=C(C)CC1(O)C(=O)C(OCC)=C1OCC (stereo not given)
inactive

Next: COc1cc(Cc2nccc3cc(OC)c(OC)cc23)c(C(C)=O)cc1OC
inactive

Next: COc1cc(OC)c(/C=C2\N=C(C)N(Nc3nnc(NN4C(=O)/C(=C/c5c(OC)cc(OC)cc5OC)N=C4C)c4ccccc34)C2=O)c(OC)c1
inactive

Next: COc1ccccc1CCN1CCN(CCCc2ccccc2)CC1
inactive

Next: O=C(O)c1cc(CCc2ccc(O)c(O)c2)ccc1O
inactive

###

# Tested on: SF-539
# Test details: NCI tumour cell line growth inhibition, 48 h
Activity calls are given as the source filed them. Rule as the data show it: active = GI50 up to about 1.1 µM and inactive = higher.
Outcomes you can answer with include only these: T = active, F = inactive

Worked examples follow.
Molecule	System tested	Category label
CCOc1c(/N=N/c2ccccc2Cl)c(-c2ccccc2)nn1C(=S)S	SF-539	F
Cc1ccc(C)c2c1CC(Cc1ccccc1C(=O)O)C2=O (centres undefined)	SF-539	F
Cc1ccc(S(=O)(=O)n2cncc2CO)cc1	SF-539	F

Per the assay record, what outcome was assigned to O=C(O)[C@H](NS(=O)(=O)c1ccc([N+](=O)[O-])cc1)c1ccccc1 ?
F

Next: CC1(c2cccc3ccccc23)OC(=O)c2ccccc21 (centres undefined)
F

Next: CCc1nc(N)nc(C(=O)NCCNC(=O)c2nc(N)nc(CC)c2C)c1C
F

Next: O=C(Nc1cccc(C(=O)NCCCO)c1)/C(=C/c1ccccc1)NC(=O)c1ccccc1
F

Next: COc1cc(S(=O)(=O)Nc2nc(-c3ccc(N4C(=O)CSC4c4cccs4)cc3)cs2)ccc1Cl (centres undefined)
F

Next: CCOC(=O)c1c(O)nc(O)c(CC)c1C
F

Next: [O-][S+](Nc1ccccc1)c1cccc(Cl)c1 (centres undefined)
F

Next: CC1(C=O)CC(CCc2ccccc2)NC1Cc1ccc(O)cc1 (centres undefined)
F

Next: Nc1nc(Nc2ccc(Cl)cc2)sc1C(=O)c1cc2ccccc2oc1=O
F

Next: CCCCNC1=C2C(=O)NN=C2CO1
F

###

# Test system: M14
# Test details: NCI tumour cell line growth inhibition, 48 h
Activity calls are given as the source filed them. Cut-off read from the data, not from the text of the source: active = GI50 up to about 1.1 µM and inactive = higher.
Outcomes you can answer with include only these: YES for active, NO for inactive

Per the assay record, what outcome was assigned to CCN(CC)CCOc1ccc(N2Cc3ccccc3C2=O)cc1 ?
NO

Next: COC(=O)NC(=O)c1cn(C2CCCCC2)c(=O)[nH]c1=O
NO

Next: Cc1nn(C)c(=S)n(C)c1=O
YES

Next: CN(C)c1ccc(-c2c(C#N)c(S)n(NS(=O)(=O)c3ccccc3)c(=O)c2C#N)cc1
NO

Next: CCOC1OCCCC1Br (stereo unspecified)
NO

Next: Nc1nc(Nc2cc(F)c(Cl)c(F)c2)cc(=O)[nH]1
NO

Next: CCCCCCCCCCCOc1ccc(C(=O)C(=O)c2ccc(OCCCCCCCCCCC)c(OCCCCCCCCCCC)c2)cc1OCCCCCCCCCCC
NO

Next: CNC1=C(C)C(=O)C(C)=C(C(C)(C)CC(=O)n2cc(F)c(=O)[nH]c2=O)C1=O
NO

Next: CCOC1CC(=O)c2c(Br)sc(Br)c21 (stereo unspecified)
NO

Next: CC(C)(O)C1CC[C@]2(C)[C@H]3CC[C@@H]4[C@@]5(C)CCCC(C)(C)[C@@H]5CC[C@@]4(C)[C@]3(C)CC[C@@H]12 (stereo partly specified)
NO

Next: O=C1CCCC2=C1C(c1ccc3c(c1)OCO3)Nc1ccc3ccccc3c12 (stereo unspecified)
NO

###

# System: SR
# Test details: NCI tumour cell line growth inhibition, 48 h
Active and inactive are the calls of the source. Rule as the data show it: active = GI50 up to about 1.1 µM and inactive = higher.
Outcomes you can answer with include only these: active, inactive

Compound	System tested	Category label
COC1(CC[C@H](C)COC2OC(CO)C(O)C(O)C2O)O[C@H]2C[C@H]3[C@@H]4CC=C5C[C@@H](OC6OC(CO)C(OC7OC(C)C(O)C(O)C7O)C(O)C6OC6OC(C)C(O)C(O)C6O)CC[C@]5(C)[C@H]4CC[C@]3(C)[C@H]2[C@@H]1C (some centres not stated)	SR	inactive
COc1cc(C2CC(C)(N3CCOCC3)Oc3cc4c(cc32)OCO4)cc(OC)c1OC (configuration not stated)	SR	active
CCOC(=O)C(=O)Nc1cccc(C)c1C	SR	inactive
CC(=O)N1N=C(c2ccc3ccccc3c2O)CC1c1ccc(Cl)cc1Cl (configuration not stated)	SR	inactive
C=C[C@]1(C)C[C@@H](OC(=O)CO)[C@@]2(C)[C@H](C)CC[C@]3(CCC(=O)[C@H]32)[C@@H](C)[C@@H]1O	SR	inactive

Per the assay record, what outcome was assigned to CC(CCC(=O)O)c1ccc(Br)cc1 (configuration not stated) ?
inactive

Next: Cn1ccc(C(=O)NCCCCCNC(=O)c2ccn(C)c(=O)c2O)c(O)c1=O
inactive

###

# Test system: UACC-257
# Test details: NCI tumour cell line growth inhibition, 48 h
Active and inactive are the calls of the source. Cut-off read from the data, not from the text of the source: active = GI50 up to about 1.1 µM and inactive = higher.
Outcomes you can answer with include only these: active, inactive

Worked examples follow.
>>> df
                                   compound  system_tested  category_label
0  Nc1nc(Nc2ccc(Cl)cc2)sc1C(=O)c1cc2ccccc2oc1=O       UACC-257        inactive
1  c1ccc(B2OCC(C3OB(c4ccccc4)OC4COB(c5ccccc5)OC43)O2)cc1 (stereo not drawn)       UACC-257        inactive
2  C=C1c2nc3ccccc3n2C=C(c2ccccc2)N1c1ccc([N+](=O)[O-])cc1       UACC-257        inactive

Per the assay record, what outcome was assigned to O=C(O)c1cnc2[nH]ccn2c1=O ?
inactive

Next: COCn1c(C)c(C)c2c(=O)oc(=O)[nH]c21
inactive

Next: CCCCCCCCCCCOc1ccc(C(=O)C(=O)c2ccc(OCCCCCCCCCCC)c(OCCCCCCCCCCC)c2)cc1OCCCCCCCCCCC
inactive

Next: NCCCCNc1ccc2c(=O)[nH][nH]c(=O)c2c1
inactive

Next: Cc1cc2cc3c(Cl)c(CCCl)c(C)nc3cc2c(Cl)c1CCCl
inactive

Next: CC(=O)OC1CCC2OOC1O2 (stereo not drawn)
inactive

Next: CCOC(=O)CCC(NC(=O)c1ccc(Nc2cnc3cc(C(F)(F)F)ccc3n2)cc1)C(=O)OCC (stereo not drawn)
inactive

Next: O=c1c2ccccc2nc(N/N=C/c2ccc(Cl)cc2)n1-c1ccccc1
inactive

Next: Nc1nc(Cl)c(/N=N/c2ccc(Cl)cc2)c(NCC2(CO)CCC(CCc3ccccc3)C2)n1 (stereo not drawn)
inactive

###

# Tested on: EKVX
# Test details: NCI tumour cell line growth inhibition, 48 h
Active and inactive are the calls of the source. Cut-off read from the data, not from the text of the source: active = GI50 up to about 1.1 µM and inactive = higher.
Experimental readout: GI50

Answered cases to consult:
Compound	GI50
C=COCCCOc1ccccc1	> 100 µM (inactive)
CCOC(=O)c1[nH]cc(C)c1-c1ccc2c(-c3ccccc3)nc3ccccc3n12	3.82 µM (inactive)
c1ccc(/N=C2\c3ccccc3CN2c2ccccn2)nc1	> 100 µM (inactive)
CCN1C[C@]2(COC)[C@H](O)C[C@H](OC)[C@]34C1[C@H]([C@H](OC)[C@H]23)[C@]1(OC(C)=O)[C@H]2[C@@H](OC(=O)c3ccccc3)[C@](O)(C[C@H]24)[C@@H](OC)[C@@H]1O	> 100 µM (inactive)

Record request: GI50 value, item Cc1ccc(C)c2c1CC(Cc1ccccc1C(=O)O)C2=O (stereo not drawn)
> 100 µM (inactive)

Next: CC(=O)c1ccccc1NC(=O)C(=O)C(C(=O)c1ccc2ccccc2c1)C1OC(=O)c2ccccc21 (stereo not drawn)
97.9 µM (inactive)

Next: CCOP(=O)(OCC)C1=C(c2ccccc2)OC(N)=C(C#N)C1c1ccc(Cl)cc1 (stereo not drawn)
> 100 µM (inactive)

Next: O=C(O)C12C3C4C1C1C2C3C1(Br)C41OCCO1 (stereo not drawn)
> 100 µM (inactive)
